tested on: single-round infectious HIV-1 reporter virus; assay: microbe, parasite or virus in culture; assay type: cell-based; settings: Table 1, Examples 35-90; HeLa CD4 CCR5 cells, luciferase reporter virus, 3 days after infection
MEASURED METRIC: % Inhibition @ 10 uM

Sample answers from the record:
COMPOUND	% Inhibition @ 10 uM
Nc1cccc(C(=O)N2CCN(C(=O)C(=O)c3c[nH]c4c(F)ccc(F)c34)CC2)c1 [Example 73]	>98%
CC(=O)Oc1cccc(C(=O)N2CCN(C(=O)C(=O)c3c[nH]c4cccc(Cl)c34)CC2)c1 [Example 86]	>98%
CC(=O)Oc1ccccc1C(=O)N1CCN(C(=O)C(=O)c2c[nH]c3cccc(F)c23)CC1 [Example 82]	91%
CC1CN(C(=O)c2cccc(N)c2)CCN1C(=O)C(=O)c1c[nH]c2c(F)ccc(F)c12 (stereo not drawn) [Example 74]	>98%
COc1ccc(Cl)c2[nH]cc(C(=O)C(=O)N3CCN(C(=O)c4cccc(N)c4)CC3C)c12 (stereo not drawn) [Example 77]	>98%
CC1CN(C(=O)c2ccc(N)cc2)CCN1C(=O)C(=O)c1c[nH]c2c(F)ccc(F)c12 (stereo not drawn) [Example 75]	>98%

Lab note: each compound below needs its % Inhibition @ 10 uM filled in.
1. COc1ccc(F)c2c(C(=O)C(=O)N3CCN(C(=O)c4ccc(N)cc4)CC3C)c[nH]c12 (stereo not drawn) [Example 81]
2. COc1cccc2[nH]cc(C(=O)C(=O)N3CCN(C(=O)c4cccc(N)c4)CC3C)c12 (stereo not drawn) [Example 79]
3. CC(=O)Oc1ccc(C(=O)N2CCN(C(=O)C(=O)c3c[nH]c4cccc(F)c34)CC2)cc1 [Example 84]
4. CC1CN(C(=O)c2cccc(N)c2)CCN1C(=O)C(=O)c1c[nH]c2cccc(F)c12 (stereo not drawn) [Example 76]
5. O=C(C(=O)N1CCN(C(=O)c2ccc(O)cc2)CC1)c1c[nH]c2cccc(F)c12 [Example 89]
6. CC(=O)Oc1cccc(C(=O)N2CCN(C(=O)C(=O)c3c[nH]c4cccc(F)c34)CC2)c1 [Example 83]

[">98%", ">98%", "98%", ">98%", "95%", ">98%"]

// input: 4 compounds below; output: % Inhibition @ 10 uM for each
1. O=C(C(=O)N1CCN(C(=O)c2ccccc2O)CC1)c1c[nH]c2cccc(F)c12 [Example 87]
2. O=C(C(=O)N1CCN(C(=O)c2cccc(O)c2)CC1)c1c[nH]c2cccc(F)c12 [Example 88]
3. CC(=O)Oc1ccc(C(=O)N2CCN(C(=O)C(=O)c3c[nH]c4cccc(Cl)c34)CC2)cc1 [Example 85]
4. Nc1cccc(C(=O)N2CCN(C(=O)C(=O)c3c[nH]c4ccccc34)CC2)c1 [Example 72]

["86%", ">98%", "93%", "87%"]

Below are some compounds; for each one, tell me its % Inhibition @ 10 uM.
1. COc1ccc(F)c2c(C(=O)C(=O)N3CCN(C(=O)c4cccc(N)c4)CC3C)c[nH]c12 (stereo not drawn) [Example 80]
2. COc1ccc(Cl)c2[nH]cc(C(=O)C(=O)N3CCN(C(=O)c4ccc(N)cc4)CC3C)c12 (stereo not drawn) [Example 78]

>98%
>98%

* * *

system: single-round infectious HIV-1 reporter virus; experiment: microbe, parasite or virus in culture; assay type: cell-based; conditions: Table 4; HeLa CD4 CCR5 cells, luciferase reporter virus, 3 days after infection
What % Inhibition @ 10 μM was measured for each of the following?

Worked set:
COMPOUND	% Inhibition @ 10 μM
CCc1cccc2c(C(=O)C(=O)N3CCN(C(=O)c4ccccn4)C[C@H]3C)c[nH]c12	88%
CC1CN(C(=O)c2ccccn2)CCN1C(=O)C(=O)c1c[nH]c2ccc(F)cc12 (stereo not shown)	61%
Cc1ccc(F)c2c(C(=O)C(=O)N3CCN(C(=O)c4ccccn4)CC3C)c[nH]c12 (stereo not shown)	93%

Next compound, % Inhibition @ 10 μM to be filled in.
Recall and state the measured % Inhibition @ 10 μM for CC1CN(C(=O)c2ccccn2)CCN1C(=O)C(=O)c1c[nH]c2c(F)ccc(F)c12 (stereo not shown) [Entry 201] .
>98%
